assay-system: κ opioid receptor (Homo sapiens)
Sequence (P41145 whole entry): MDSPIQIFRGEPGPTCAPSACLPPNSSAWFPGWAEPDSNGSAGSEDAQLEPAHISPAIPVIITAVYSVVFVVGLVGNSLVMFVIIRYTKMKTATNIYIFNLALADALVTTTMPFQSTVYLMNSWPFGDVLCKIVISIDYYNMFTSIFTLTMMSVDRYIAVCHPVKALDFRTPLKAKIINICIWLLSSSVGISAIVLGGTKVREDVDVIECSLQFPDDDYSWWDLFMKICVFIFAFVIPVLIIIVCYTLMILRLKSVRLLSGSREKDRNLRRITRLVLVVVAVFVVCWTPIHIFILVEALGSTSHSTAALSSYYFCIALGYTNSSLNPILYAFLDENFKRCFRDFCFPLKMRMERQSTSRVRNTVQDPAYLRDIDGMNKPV
assay-text: PDSP radioligand binding, κ opioid
measurement-conditions: read-out: % inhibition at 10 µM; single concentration 10 µM
Please mark t if the recorded inhibition at 10 µM is equal to or greater than 20%, and f if it falls below.

Use these answered entries as a reference point.
O[C@@H]1[C@H](O)[C@@H]2C[C@@H]2[C@H]1n1cnc2c(NCc3cccc(Cl)c3)nc(C#Cc3ccc(F)c(F)c3)nc21 | t
O[C@@H]1[C@H](O)[C@@H]2C[C@@H]2[C@H]1n1cnc2c(NCc3cccc(Cl)c3)ncnc21 | f
CNC(=O)[C@@]12C[C@@H]1[C@@H](n1cnc3c(NCc4cccc(Cl)c4)nc(C#Cc4ccccc4Cl)nc31)[C@H](O)[C@@H]2O | f
Fc1ccc(C#Cc2nc(NCc3cccc(Cl)c3)c3nc[nH]c3n2)cc1F | f
CNC(=O)[C@@]12C[C@@H]1[C@@H](n1cnc3c(NC)nc(C#Cc4ccc(F)c(F)c4)nc31)[C@H](O)[C@@H]2O | t
Clc1cccc(CNc2nc(Cl)nc3[nH]cnc23)c1 | f

Now consider the entry below.
Hi, just wondering whether CNC(=O)[C@@]12C[C@@H]1[C@@H](n1cnc3c(NCc4cccc(Cl)c4)nc(Cl)nc31)[C@H](O)[C@@H]2O shows inhibition at 10 µM of 20% or higher.
f
